target: T1, human MSLN-R3-3 polypeptide (human); test: ELISA, coated MSLN-R3-3;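 further: chimeric antibodies in serial dilution bound to plate-coated antigen for 2 h at 37 °C, with a negative control antibody alongside, and TMB colour development stopped with HCl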
T1 construct: also called human MSLN-R3-3 protein; hMSLN-R3-3
binders and their reported OD450 at 100 nM

binder | OD450 at 100 nM [OD450]
S009-F1.35.24 (antibody, human IgG1, kappa, V domains shown, Human-murine chimeric antibody, human IgG1/kappa constant regions) VH: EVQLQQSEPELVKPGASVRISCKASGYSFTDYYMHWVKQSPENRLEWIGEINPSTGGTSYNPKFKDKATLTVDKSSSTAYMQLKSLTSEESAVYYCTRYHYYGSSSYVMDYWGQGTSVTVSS VL: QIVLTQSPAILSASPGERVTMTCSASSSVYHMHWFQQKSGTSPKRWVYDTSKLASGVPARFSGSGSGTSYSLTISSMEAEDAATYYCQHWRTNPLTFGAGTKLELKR | 0.15
S009-F1.2.12 (antibody, human IgG1, kappa, V domains shown) VH: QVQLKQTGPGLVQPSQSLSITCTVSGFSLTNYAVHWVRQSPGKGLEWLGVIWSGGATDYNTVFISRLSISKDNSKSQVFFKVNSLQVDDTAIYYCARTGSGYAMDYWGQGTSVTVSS VL: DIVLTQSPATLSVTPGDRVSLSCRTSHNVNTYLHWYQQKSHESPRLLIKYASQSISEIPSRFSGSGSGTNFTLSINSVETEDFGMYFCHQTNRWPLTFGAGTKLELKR | 0.16
S009-F1.59.1 (antibody, human IgG1, kappa, V domains shown, Human-murine chimeric antibody, human IgG1/kappa constant regions) VH: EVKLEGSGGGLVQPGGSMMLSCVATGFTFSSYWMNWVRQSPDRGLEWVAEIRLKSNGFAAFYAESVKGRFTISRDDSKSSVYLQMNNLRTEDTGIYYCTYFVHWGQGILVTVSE VL: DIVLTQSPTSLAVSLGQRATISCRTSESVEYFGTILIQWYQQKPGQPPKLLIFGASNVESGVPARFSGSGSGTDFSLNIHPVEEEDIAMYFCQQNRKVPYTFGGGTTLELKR | 0.18
S009-F1.56.1 (antibody, human IgG1, kappa, V domains shown, Human-murine chimeric antibody, human IgG1/kappa constant regions) VH: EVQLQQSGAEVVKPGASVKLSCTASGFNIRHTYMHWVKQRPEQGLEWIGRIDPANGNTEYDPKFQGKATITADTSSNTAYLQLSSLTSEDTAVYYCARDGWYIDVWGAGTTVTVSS VL: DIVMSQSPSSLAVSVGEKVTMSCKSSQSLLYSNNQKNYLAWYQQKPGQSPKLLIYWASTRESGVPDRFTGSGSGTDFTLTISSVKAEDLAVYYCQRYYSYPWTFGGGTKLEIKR | 0.12
